test system: UACC-257 melanoma; assay: NCI-60 one-dose screen, 48 h (100 = growth as untreated, 0 = no growth, -100 = all killed); conditions: 10 µM unless noted
Compounds without any hit were thinned out: in the full panel of roughly 83,000, 20% have a hit. Activity calls are given as the source filed them. The calls were made as follows: active = growth percent below 10; inactive = the rest.
readout: growth

- compound: "CC(=O)Nc1nc2c(c(N)c1C#N)C(c1cccc(Cl)c1)C1=C(CCCC1=O)N2c1sc2c(c1C#N)CCCC2 (stereo not drawn)"
  readout: "growth"
  reportedResult: "54.4% (inactive)"
- compound: "C=C1C(=O)O[C@H]2[C@H]1CC/C(C=Nc1c(N)cc(C(F)(F)F)cc1Br)=C\\CC[C@@]1(C)O[C@@H]21"
  readout: "growth"
  reportedResult: "34% (inactive)"
- compound: "N#Cc1nc(-c2ccccc2)oc1S(=O)(=O)NCC(c1ccc(Cl)cc1)N1CCCCC1 (stereo not drawn)"
  readout: "growth"
  reportedResult: "88.1% (inactive)"

----------
tested on: SNB-75 CNS; experiment: NCI-60 one-dose screen, 48 h (100 = growth as untreated, 0 = no growth, -100 = all killed); conditions: 10 µM unless noted
This is part of a sample that, as a whole, favours compounds with a hit. Of some 83,000 tested, about 20% had one in any assay.

- compound: "COC1=CC=CC2(OC)C3(O)CCCc4cccc(c43)N3C(=O)COC132 (stereo not drawn)"
  experimentalSystem: "SNB-75 CNS"
  growth / %: 84.2
- compound: "Cc1nnc(/N=C2\\NC(=O)/C(=C/c3ccsc3)S2)s1"
  experimentalSystem: "SNB-75 CNS"
  growth / %: 74.3
- compound: "C=C1C(=O)O[C@H]2[C@H]1CC/C(COC(=O)CCC(=O)OC/C1=C/CC[C@@]3(C)O[C@H]3[C@H]3OC(=O)C(=C)[C@@H]3CC1)=C\\CC[C@@]1(C)O[C@@H]21"
  experimentalSystem: "SNB-75 CNS"
  growth / %: 76.5

----------
system: KM12 colon; experiment: NCI-60 one-dose screen, 48 h; conditions: 10 µM unless noted
Compounds without any hit were thinned out: in the full panel of roughly 83,000, 20% have a hit. The source made the active and inactive calls. The calls were made as follows: active = growth percent below 10; inactive = the rest.
Outcome codes: active, inactive

- compound: "CCc1n(Cc2ccc3ccccc3c2)c2ccccc2[n+]1Cc1ccc2ccccc2c1"
  labelValue: "inactive"
- compound: "S=C(Nc1ccccc1)c1ccccn1"
  labelValue: "inactive"
- compound: "COc1cccc(NC(=O)Nc2ccc(Oc3ncnc4[nH]c(C)c(C)c34)cc2)c1"
  labelValue: "inactive"
- compound: "COc1ccc(/C=C/C(=O)C(CC2CCC2)C(=O)/C=C/c2ccc(OC)c(OC)c2)cc1OC"
  labelValue: "active"
- compound: "COc1ccc(C(=O)c2cc(OC)c(OC)c(OC)c2)cc1OC(=O)C(Cl)(Cl)Cl"
  labelValue: "active"
- compound: "N#Cc1c(-c2ccc(F)cc2)c(C#N)c2c(C#N)c(N)nn2c1N"
  labelValue: "inactive"
- compound: "N#CC1C(c2ccc(Cl)cc2)=Nc2c(c(-c3ccccc3)nn2-c2ccccc2)C12C(=O)Nc1ccc(Cl)cc12 (centres undefined)"
  labelValue: "inactive"
- compound: "C=C1C(=O)O[C@H]2[C@H]1CC/C(COC(=O)CCCCCCCC(=O)OC/C1=C/CC[C@@]3(C)O[C@H]3[C@H]3OC(=O)C(=C)[C@@H]3CC1)=C\\CC[C@@]1(C)O[C@@H]21"
  labelValue: "inactive"
- compound: "COC(=O)c1ccc(NC(=O)CSc2nc(-c3ccc(F)cc3)nc3ccccc23)cc1"
  labelValue: "inactive"
- compound: "C=C1C(=O)O[C@H]2[C@H]1CC/C(COC(=O)N1CCC[C@H]1C(=O)Nc1ccc(OC)c(C(N)=O)c1O)=C\\CC[C@@]1(C)O[C@@H]21"
  labelValue: "inactive"
- compound: "O=C(Nc1nccs1)c1noc2ccccc12"
  labelValue: "inactive"
- compound: "CC1=C(CCCOC(=O)NCCCl)C2=C(C)C3(CC3)[C@@](C)(O)C(=O)C2=C1"
  labelValue: "inactive"
- compound: "CN1CCN(C(=O)[C@@]2(C)CC[C@]3(C)CC[C@]4(C)C(=CC[C@@H]5[C@@]6(C)CC[C@H](OC(=O)c7cccnc7)C(C)(C)[C@@H]6CC[C@]54C)[C@@H]3C2)CC1"
  labelValue: "inactive"
- compound: "CCC[S@](=O)c1ccc2nc(NC(=O)OC)[nH]c2c1"
  labelValue: "inactive"
- compound: "Nc1cc(N)c(S(=O)(=O)O)cc1N=Nc1cc([N+](=O)[O-])ccc1O"
  labelValue: "inactive"
- compound: "Cc1cc(C)nc(NS(=O)(=O)c2ccc(Nc3ccc4c5c(n(CCCN(C)C)c(=O)c4c3)-c3ccccc3C5=O)cc2)n1"
  labelValue: "inactive"
- compound: "Cc1ccc(SC2c3ccc(C)cc3Oc3nc(N)c(C#N)c(N)c32)cc1 (centres undefined)"
  labelValue: "inactive"
- compound: "COC(=O)c1ccc2c(c1)NC(=O)[C@@H]1CCCN21"
  labelValue: "inactive"
- compound: "N#Cc1c(-c2ccc(F)cc2)nc(N=Nc2c(O)[nH]c3ccc(Cl)cc23)nc1N1CCOCC1"
  labelValue: "inactive"

----------
system: NCI-H226 lung; assay: NCI-60 one-dose screen, 48 h (100 = growth as untreated, 0 = no growth, -100 = all killed); conditions: 10 µM unless noted
About 83,000 compounds went through this panel and 20% of them were active in at least one assay; those are over-represented in the sample as a whole. Activity calls are given as the source filed them. Rule for the calls: active = growth percent below 10; inactive = the rest.
readout: growth

- molecule: "CC(C)NS(=O)(=O)c1cccc(-c2ccc3c(=O)n(CCCN)c4c(c3c2)C(=O)c2ccccc2-4)c1"
  readout: "growth"
  reportedResult: "93.4% (inactive)"
- molecule: "COc1ccc(/C=C/C(=O)c2ccc(NC(=O)CSc3nnc(-c4ccc(OC)c(OC)c4)n3-c3ccccc3)cc2)cc1"
  readout: "growth"
  reportedResult: "80.7% (inactive)"
- molecule: "O=C1NCc2ccc3c(-c4cccc(Cl)c4)c[nH]c3c21"
  readout: "growth"
  reportedResult: "89.6% (inactive)"
- molecule: "CCOC(=O)c1c(C)nc2c(c1N)/C(=C/c1cccs1)C(=O)N2Cc1ccccc1"
  readout: "growth"
  reportedResult: "77.5% (inactive)"
- molecule: "S=C(Nc1ccc(Cl)cc1)c1ccccn1"
  readout: "growth"
  reportedResult: "88.1% (inactive)"
- molecule: "COc1cc(C2=NN(c3ccccc3)C(c3cccc(Nc4ccnc5cc(C(F)(F)F)ccc45)c3)C2)cc(OC)c1OC (centres undefined)"
  readout: "growth"
  reportedResult: "83.6% (inactive)"
- molecule: "CCCn1c2cc(OCc3cn(-c4ccc(Br)cc4)nn3)ccc2c2ccnc(C)c21"
  readout: "growth"
  reportedResult: "25.6% (inactive)"
- molecule: "Cc1ccc(-c2nc(C#N)c(S(=O)(=O)N(C)CCO)o2)cc1"
  readout: "growth"
  reportedResult: "124% (inactive)"
- molecule: "CCC1S/C(=N\\N=C(/C)c2ccc[nH]2)N(c2ccccc2)C1=O (centres undefined)"
  readout: "growth"
  reportedResult: "132% (inactive)"
- molecule: "COc1cc(NC(=O)Nc2cnc(Nc3ccc(N4CCOCC4)cc3)nc2Oc2ccc(C(F)(F)F)cc2)cc(OC)c1"
  readout: "growth"
  reportedResult: "97.7% (inactive)"
- molecule: "COc1ccc(C(=S)c2cc(OC)c(OC)c(OC)c2)cc1OC(=O)CCl"
  readout: "growth"
  reportedResult: "103% (inactive)"
- molecule: "Nc1ccc(C2=NN(C(=O)c3cc(-c4ccc(Cl)cc4)nc4ccccc34)C(c3ccc(Cl)cc3)C2)cc1 (centres undefined)"
  readout: "growth"
  reportedResult: "60.1% (inactive)"
- molecule: "CCCCn1c(=O)c(/C=C/C(=O)/C=C/c2ccc(OC)cc2)cc2cc(Cl)ccc21"
  readout: "growth"
  reportedResult: "70% (inactive)"
- molecule: "Cc1c(Br)cccc1NC(=O)c1sc2nc3c(cc2c1N)CN(Cc1ccccc1)CC3"
  readout: "growth"
  reportedResult: "23.7% (inactive)"
- molecule: "CCCCCCCCCCCCCC1=NCC[N+]1(CCO)Cc1ccccc1 (centres undefined)"
  readout: "growth"
  reportedResult: "-30.2% (active)"
- molecule: "C=C1C(=O)O[C@H]2[C@H]1CC/C(COC(=O)CCCCC(=O)OC/C1=C/CC[C@@]3(C)O[C@H]3[C@H]3OC(=O)C(=C)[C@@H]3CC1)=C\\CC[C@@]1(C)O[C@@H]21"
  readout: "growth"
  reportedResult: "75.3% (inactive)"
- molecule: "C[C@@H]1C(=O)[C@@H]2C[C@@H](O)[C@@H](O)C[C@]2(C)[C@H]2CC[C@@]3(C)C(=C12)CC[C@@H]3[C@@](C)(O)[C@H](O)CCC(C)(C)O"
  readout: "growth"
  reportedResult: "99.5% (inactive)"
- molecule: "CCCNc1nc(C)[nH]c(=O)c1S"
  readout: "growth"
  reportedResult: "122% (inactive)"
- molecule: "CN(C)C1=NCCN1"
  readout: "growth"
  reportedResult: "99.4% (inactive)"
- molecule: "COc1cc(/C=C/C(=O)c2ccc(NC(=O)CSc3nnc(-c4cc(OC)c(OC)c(OC)c4)n3-c3ccccc3)cc2)cc(OC)c1OC"
  readout: "growth"
  reportedResult: "-64% (active)"
- molecule: "O=C1CC(c2ccc(O)c(O)c2)Oc2cc(O)c([C@@H]3O[C@H](CO)[C@@H](O)[C@H](O)[C@H]3O)c(O)c21 (some centres undefined)"
  readout: "growth"
  reportedResult: "98.9% (inactive)"
- molecule: "CCOC(=O)/C=C1\\SC(=Nc2ccc(C#N)cc2)N(CCN2C(=O)/C(=C/C(=O)OCC)SC2=Nc2ccc(C#N)cc2)C1=O"
  readout: "growth"
  reportedResult: "92.9% (inactive)"
- molecule: "O=c1[nH]c2ccccc2cc1-c1nc2ccc(Cl)cc2[nH]1"
  readout: "growth"
  reportedResult: "55.2% (inactive)"
- molecule: "COc1ccc(C2N(c3cc(OC)c(OC)c(OC)c3)C(=O)C2(F)F)cc1F (centres undefined)"
  readout: "growth"
  reportedResult: "75.5% (inactive)"
- molecule: "O=C(CCCC(=O)Nc1ccc(-n2nnc3cc(Cl)c(Cl)cc32)cc1)Nc1ccc(-n2nnc3cc(Cl)c(Cl)cc32)cc1"
  readout: "growth"
  reportedResult: "49.9% (inactive)"
- molecule: "C=C1C(=O)O[C@H]2[C@H]1CC/C(COC(=O)CCCCCCCCC(=O)OC/C1=C/CC[C@@]3(C)O[C@H]3[C@H]3OC(=O)C(=C)[C@@H]3CC1)=C\\CC[C@@]1(C)O[C@@H]21"
  readout: "growth"
  reportedResult: "1.19% (active)"
- molecule: "C#CCOC(=O)[C@]1(C)CCC[C@]2(C)[C@H]3C[C@H]4C(C(C)C)=C[C@]3(CC[C@H]21)[C@@H]1C(=O)CCC(=O)[C@@H]14"
  readout: "growth"
  reportedResult: "85.9% (inactive)"
- molecule: "Nc1c(C(=O)Nc2ccccc2Cl)sc2nc3c(cc12)CN(Cc1ccccc1)CC3"
  readout: "growth"
  reportedResult: "91.5% (inactive)"
- molecule: "Cc1cccc(C)c1NCc1nnc(-c2ccc(O)cc2)o1"
  readout: "growth"
  reportedResult: "95.5% (inactive)"
